Measured GI50 values are reported for all entries that follow.
# System: CCRF-CEM leukemia
# test-description: NCI tumour cell line growth inhibition, 48 h

Examples with answers:
>>> df
                                   compound  metric   result
0  Cc1nc(N)nc2c1CCC(O)S2 (stereo not drawn)    GI50  4290 nM
1  O=C(/C=C/C12c3ccccc3C(c3ccccc31)C1C(=O)NC(=O)C12)c1ccc(Cl)cc1Cl (stereo not drawn)    GI50  1890 nM

# evaluate next
Recorded GI50 for `COc1cc2nc(SCc3cc(OC)c(OC)c(OC)c3)n(Cc3ccccc3)c(=O)c2cc1OC` , please? 3000 nM
